Data origin: patent US12084456B2

Entries and their solubility at 24 h
# assay.name: Solubility assay (shake-flask method)
# Format: physicochemical
# details: thermodynamic from solid; water, stirred 24 hours, shake-flask, LCMS; read-out: aq. Solubility

response.value for Nc1c2c(cc3c1C(=O)N[C@H]1[C@H](O)[C@H](O)[C@@H](O)[C@H](O)[C@H]31)OCO2 [compound 52, 7-aminopancratistatin] (field: solubility at 24 h) = 3460 µg/mL

response.value for Nc1c2c(cc3c1C(=O)N[C@@H]1C3=C[C@H](O)[C@@H](O)[C@H]1O)OCO2 [compound 47, 7-aminolycoricidine] (field: solubility at 24 h) = 3740 µg/mL

response.value for O=C1N[C@H]2[C@H](O)[C@H](O)[C@@H](O)[C@H](O)[C@@H]2c2cc3c(c(O)c21)OCO3 [compound 2, (+)-pancratistatin, reference compound] (field: solubility at 24 h) = 560 µg/mL

====

# System: A549 cells
# details: human lung and colon cancer cell lines (A549 and HCT116)
readout.name: anticancer activity / cytotoxicity in words

[2H]C1([2H])Oc2cc3c(c(O)c2O1)C(=O)N[C@@H]1C3=C[C@H](O)[C@@H](O)[C@H]1O [4-d2, (+)-narciclasine 4-d2] :: equipotent activity
[2H]C1=C2c3cc4c(c(O)c3C(=O)N[C@@]2([2H])[C@]([2H])(O)[C@]([2H])(O)[C@@]1([2H])O)OCO4 [4-d5, (+)-narciclasine 4-d5] :: equipotent activity

====

# System: A549 cells
# details: read-out: Activity data for compounds: A549
Entries get a class label from measured IC50. See ranges: bottom bin = under 1 µM, middle bin = from 1 µM up to 40 µM, top bin = 40 µM and over

Example cases with answers are listed next.
C=CCc1c2c(cc3c1C(=O)N[C@@H]1C3=C[C@H](O)[C@@H](O)[C@H]1O)OCO2 :: top bin
Nc1c2c(cc3c1C(=O)N[C@@H]1C3=C[C@H](O)[C@@H](O)[C@H]1O)OCO2 :: bottom bin
O=C1N[C@@H]2C(=C[C@H](O)[C@@H](O)[C@H]2O)c2cc3c(c(C(=O)c4ccccc4)c21)OCO3 :: top bin
COCc1c2c(cc3c1C(=O)N[C@@H]1C3=C[C@H](O)[C@@H](O)[C@H]1O)OCO2 :: top bin
N#Cc1c2c(cc3c1C(=O)N[C@@H]1C3=C[C@H](O)[C@@H](O)[C@H]1O)OCO2 :: middle bin
O=C1N[C@@H]2C(=C[C@H](O)[C@@H](O)[C@H]2O)c2cc3c(c(CO)c21)OCO3 [compound 41, 7-hydroxymethyl lycoricidine] :: top bin
O=C(O)Cc1c2c(cc3c1C(=O)N[C@@H]1C3=C[C@H](O)[C@@H](O)[C@H]1O)OCO2 :: top bin
O=C1N[C@H]2[C@H](O)[C@H](O)[C@@H](O)[C@H](O)[C@@H]2c2cc3c(cc21)OCO3 [compound 1, (+)-7-deoxypancratistatin, reference compound] :: middle bin

For the record "Nc1c2c(cc3c1C(=O)N[C@H]1[C@H](O)[C@H](O)[C@@H](O)[C@H](O)[C@H]31)OCO2" , report the class its IC50 corresponds to.
middle bin

For the record O=C1N[C@H]2[C@H](O)[C@H](O)[C@@H](O)[C@H](O)[C@@H]2c2cc3c(c(O)c21)OCO3 [compound 2, (+)-pancratistatin, reference compound] , report the class its IC50 corresponds to.
bottom bin
